Hello, the source for this data is ChEMBL document CHEMBL1129946, in case you need it.

Molecular target: 5-hydroxytryptamine receptor 4 (Cavia porcellus, UniProt O70528)
Sequence (O70528 whole entry): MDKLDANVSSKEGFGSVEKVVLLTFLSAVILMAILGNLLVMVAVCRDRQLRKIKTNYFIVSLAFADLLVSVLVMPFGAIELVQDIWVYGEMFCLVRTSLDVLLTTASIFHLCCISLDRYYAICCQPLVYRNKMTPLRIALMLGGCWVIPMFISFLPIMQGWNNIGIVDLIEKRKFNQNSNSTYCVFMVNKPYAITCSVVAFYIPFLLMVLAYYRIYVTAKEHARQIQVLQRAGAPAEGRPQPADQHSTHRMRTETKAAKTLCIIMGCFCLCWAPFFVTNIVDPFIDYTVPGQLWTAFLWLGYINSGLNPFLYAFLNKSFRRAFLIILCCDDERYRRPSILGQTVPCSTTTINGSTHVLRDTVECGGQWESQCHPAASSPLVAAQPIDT
Experiment: 5-hydroxytryptamine 4 receptor agonist activity, concentration which gave 50% increase in the response to electrically-stimulated myenteric plexus and longitudinal muscle of the guinea pig ileum
Value Type: pEC50
pEC50 is a log-scale quantity: -log10 of the concentration expressed in molar.

Query string: Please list pEC50 recorded for the compound COc1cc(N)c(Cl)cc1C(=O)OCCN1CCCC(O)C1 (stereo in doubt; 7k)
Result string: 8.40

Query string: Please list pEC50 recorded for the compound `COc1cc(N)c(Cl)cc1C(=O)OCCN1CC=CCC1`
Result string: 7.54

Query string: Please list pEC50 recorded for the compound `COc1cc(N)c(Cl)cc1C(=O)N[C@@H]1CN2CCC1CC2`
Result string: 7.11

Query string: Please list pEC50 recorded for the compound COc1cc(N)c(Cl)cc1C(=O)OCCN1CCCC(C)C1 (centres undefined)
Result string: 7.82

Query string: Please list pEC50 recorded for the compound `COc1cc(N)c(Cl)cc1C(=O)OCCN(C)C`
Result string: 6.74

Query string: Please list pEC50 recorded for the compound `COc1cc(N)c(Cl)cc1C(=O)OCCN1CCOCC1`
Result string: 6.95

Query string: Please list pEC50 recorded for the compound `COc1cc(N)c(Cl)cc1C(=O)OCCN1CCCC1`
Result string: 7.40

Query string: Please list pEC50 recorded for the compound CC(C)n1c(=O)n(C(=O)NC2CC3CCC(C2)N3C)c2ccccc21 (centres undefined)
Result string: 7.37

Query string: Please list pEC50 recorded for the compound `COc1cc(N)c(Cl)cc1C(=O)OCCN1CCC(O)CC1`
Result string: 7.85

Query string: Please list pEC50 recorded for the compound COc1cc(N)c(Cl)cc1C(=O)OCCN1CCCC(O)C1 (stereo in doubt; 7l)
Result string: 8.00

Query string: Please list pEC50 recorded for the compound `COc1cc(N)c(Cl)cc1C(=O)OCCN1C2CCCC1CC2`
Result string: 7.40

Query string: Please list pEC50 recorded for the compound `COc1cc(N)c(Cl)cc1C(=O)OCC[n+]1ccccc1`
Result string: 7.77

Query string: Please list pEC50 recorded for the compound `COc1cc(N)c(Cl)cc1C(=O)OCCCN1CCCCC1`
Result string: 7.52

* * *

Biological target: 5-hydroxytryptamine receptor 4 (Cavia porcellus)
Test: 5-hydroxytryptamine 4 receptor agonist activity, concentration which gave 50% increase in the response to electrically-stimulated myenteric plexus and longitudinal muscle of the guinea pig ileum
Label 1.0 when EC50 < 8 nM; otherwise 0.0.

Query string: Hello, I'm reviewing records and need to know if EC50 of `COc1cc(N)c(Cl)cc1C(=O)NCCN1CCCCC1` is below 8 nM. Could you check?
Result string: 0.0

Query string: Hello, I'm reviewing records and need to know if EC50 of COc1cc(N)c(Cl)cc1C(=O)OCCN1CCCCC1C (stereo unspecified) is below 8 nM. Could you check?
Result string: 1.0

Query string: Hello, I'm reviewing records and need to know if EC50 of COc1cc(N)c(Cl)cc1C(=O)N[C@H]1CN2CCC1CC2 [(R)ZACOPRIDE] is below 8 nM. Could you check?
Result string: 0.0

Query string: Hello, I'm reviewing records and need to know if EC50 of `COc1cc(N)c(Cl)cc1C(=O)OCCN1CCC(NC(C)=O)CC1` is below 8 nM. Could you check?
Result string: 0.0

Query string: Hello, I'm reviewing records and need to know if EC50 of `COc1cc(N)c(Cl)cc1C(=O)OCCN1CCC(C(N)=O)CC1` is below 8 nM. Could you check?
Result string: 0.0

Query string: Hello, I'm reviewing records and need to know if EC50 of `COc1cc(N)c(Cl)cc1C(=O)OCCN1CCCCCC1` is below 8 nM. Could you check?
Result string: 1.0

Query string: Hello, I'm reviewing records and need to know if EC50 of COc1cc(N)c(Cl)cc1C(=O)OCCN1CCCC(O)C1 (stereo in doubt; 7j) is below 8 nM. Could you check?
Result string: 1.0

Query string: Hello, I'm reviewing records and need to know if EC50 of `COc1cc(N)c(Cl)cc1C(=O)OCC[N+]12CCC(CC1)CC2` is below 8 nM. Could you check?
Result string: 1.0

Query string: Hello, I'm reviewing records and need to know if EC50 of `COc1cc(N)c(Cl)cc1C(=O)OCCN1CCC(C)CC1` is below 8 nM. Could you check?
Result string: 1.0

Query string: Hello, I'm reviewing records and need to know if EC50 of `COc1cc(N)c(Cl)cc1C(=O)N(C)CCN1CCCCC1` is below 8 nM. Could you check?
Result string: 0.0
